The origin of these recorded values is ChEMBL document CHEMBL3763073.

Target: Vasopressin V1a receptor (Homo sapiens, UniProt P37288)
Sequence (P37288 whole entry): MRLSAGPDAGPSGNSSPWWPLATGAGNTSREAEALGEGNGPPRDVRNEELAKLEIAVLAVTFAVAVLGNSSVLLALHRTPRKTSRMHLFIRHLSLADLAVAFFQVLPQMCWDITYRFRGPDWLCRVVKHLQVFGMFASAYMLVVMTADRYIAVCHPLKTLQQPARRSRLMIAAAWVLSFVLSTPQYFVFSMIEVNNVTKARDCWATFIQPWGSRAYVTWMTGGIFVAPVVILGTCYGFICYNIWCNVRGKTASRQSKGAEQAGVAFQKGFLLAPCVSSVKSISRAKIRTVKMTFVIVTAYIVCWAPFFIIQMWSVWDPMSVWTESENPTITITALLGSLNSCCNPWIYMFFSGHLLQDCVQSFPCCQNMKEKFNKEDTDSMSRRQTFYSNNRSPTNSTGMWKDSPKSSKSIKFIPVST
Assay: Displacement of [3H]-vasopressin from human vasopressin 1a receptor expressed in HEK293 cells after 90 mins by microbeta 2 microplate-reader method
Assay type: cell-based
pKi: −log10 of the molar value.
measurement name: pKi

Please review the entries below; each comes with its answer.
COc1cc(CN2CCN(CCCCCCC(=O)N3Cc4cnn(C)c4Nc4ccccc43)CC2)cc(OC)c1 | 6.71
Cn1ncc2c1Nc1ccccc1N(C(=O)CCCCCCN1CCN(Cc3cc(O)cc(O)c3)CC1)C2 | 6.89
Cn1ncc2c1Nc1ccccc1N(C(=O)CCCCN1CCN(Cc3cc(O)cc(O)c3)CC1)C2 | 6.33

[P] COc1cc(CN2CCN(CCCCCCCC(=O)N3Cc4cnn(C)c4Nc4ccccc43)CC2)cc(OC)c1
[Q] COc1cc(CN2CCN(CCCCC(=O)N3Cc4cnn(C)c4Nc4ccccc43)CC2)cc(OC)c1
Request: When the recorded pKi values are compared, which is smaller: that of P or that of Q ? To answer, give the label that identifies your chosen option.
Result: Q
(Q: 6.39, P: 6.61)

---

Reported pKi for target or system UniProtKB P30559, by entry.
Sequence (P30559 whole entry): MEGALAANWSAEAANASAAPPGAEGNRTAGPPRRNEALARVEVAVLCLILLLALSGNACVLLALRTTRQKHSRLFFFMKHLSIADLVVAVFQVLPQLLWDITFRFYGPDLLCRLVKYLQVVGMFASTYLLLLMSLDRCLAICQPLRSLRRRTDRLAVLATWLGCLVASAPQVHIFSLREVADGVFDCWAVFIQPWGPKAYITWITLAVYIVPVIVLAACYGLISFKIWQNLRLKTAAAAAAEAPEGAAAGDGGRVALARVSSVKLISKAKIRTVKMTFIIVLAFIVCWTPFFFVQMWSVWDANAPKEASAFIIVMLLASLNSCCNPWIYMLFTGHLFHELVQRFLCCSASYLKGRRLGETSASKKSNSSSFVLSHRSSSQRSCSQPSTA
pKi: −log10 of the molar value.
measurement name: pKi

[I] Cn1ncc2c1Nc1ccccc1N(C(=O)CCCCCCCN1CCN(Cc3cc(O)cc(O)c3)CC1)C2
[II] COc1cc(CN2CCN(C(=O)NCc3ccc(C(=O)N4Cc5cnn(C)c5Nc5ccccc54)cc3C)CC2)cc(OC)c1
Request: When the recorded pKi values are compared, which is smaller: that of I or that of II ? To answer, give the label that identifies your chosen option.
Result: I
(I: 5.08, II: 6.10)

---

Molecular target: Vasopressin V1a receptor (Homo sapiens)
Assay: Antagonist activity at human vasopressin 1a receptor expressed in HEK293 cells assessed as inhibition of vasopressin induced IP1 accumulation pretreated for 30 mins measured 1 hr post Ab-Cryptate and IP1-d2 addition by HTRF assay
pIC50: −log10 of the molar value.
measurement name: pIC50

Cn1ncc2c1Nc1ccccc1N(C(=O)CCCCCCCN1CCN(Cc3cc(O)cc(O)c3)CC1)C2 | 5.33
COc1cc(CN2CCN(CCCCCC(=O)N3Cc4cnn(C)c4Nc4ccccc43)CC2)cc(OC)c1 | 5.09

[1] COc1cc(CN2CCN(C(=O)NCc3ccc(C(=O)N4Cc5cnn(C)c5Nc5ccccc54)cc3C)CC2)cc(OC)c1
[2] COc1cc(CN2CCN(CCCCCCCC(=O)N3Cc4cnn(C)c4Nc4ccccc43)CC2)cc(OC)c1
Request: When the recorded pIC50 values are compared, which is smaller: that of 1 or that of 2 ? To answer, give the label that identifies your chosen option.
Result: 2

---

Molecular target: Vasopressin V1a receptor (Homo sapiens)
Test: Agonist activity at human vasopressin 1a receptor expressed in HEK293 cells assessed as increase in IP1 accumulation preincubated for 1 hr followed by addition of Ab-Cryptate and IP1-d2 by HTRF assay
pEC50: −log10 of the molar value.
measurement name: pEC50

Please review the entries below; each comes with its answer.
Cn1ncc2c1Nc1ccccc1N(C(=O)CCCCN1CCN(Cc3cc(O)cc(O)c3)CC1)C2 | < 5.00
Cn1ncc2c1Nc1ccccc1N(C(=O)CCCCCN1CCN(Cc3cc(O)cc(O)c3)CC1)C2 | < 5.00
COc1cc(CN2CCN(CCCCCCCC(=O)N3Cc4cnn(C)c4Nc4ccccc43)CC2)cc(OC)c1 | < 5.00
Cn1ncc2c1Nc1ccccc1N(C(=O)CCCCCCCN1CCN(Cc3cc(O)cc(O)c3)CC1)C2 | < 5.00

For record "COc1cc(CN2CCN(CCCCCCC(=O)N3Cc4cnn(C)c4Nc4ccccc43)CC2)cc(OC)c1" the listed pEC50 is < 5.00
